- Tested on: MKL-1 cells (VP-MCC)
- Assay details: qHTS cell viability (CellTiter-Glo, 72 h; primary and follow-up small molecule screen)
- Assay type: cell-based, human
Structures can show the parent of a compound that is named as a salt.
Measured endpoint: Area under the dose-response curve (AUC) MKL-1 Replicate 1

Below: 3 compounds and their reported Area under the dose-response curve (AUC) MKL-1 Replicate 1.
{"columns": ["Compound", "Reported measurement"],
 "data": [
  ["CC(/C=C/C(=O)NO)=C\\[C@@H](C)C(=O)c1ccc(N(C)C)cc1 [TSA]", 401.2],
  ["CS[C@H]1SC[C@H]2C(=O)N(C)[C@@H](C(C)C)C(=O)OC[C@@H](NC(=O)c3cnc4ccccc4n3)C(=O)N[C@@H](C)C(=O)N(C)[C@@H]1C(=O)N(C)[C@@H](C(C)C)C(=O)OC[C@@H](NC(=O)c1cnc3ccccc3n1)C(=O)N[C@@H](C)C(=O)N2C [Echinomycin]", 235.9],
  ["CC[n+]1c(-c2ccccc2)c2cc(N)ccc2c2ccc(N)cc21 [Ethidium bromide]", 280.1]
]}

Dear reader, for each entry below, please note its Area under the dose-response curve (AUC) MKL-1 Replicate 1.
1. CCC(=O)CCCCC[C@@H]1NC(=O)[C@H]2CCCCN2C(=O)[C@H]([C@@H](C)CC)NC(=O)[C@H](Cc2cn(OC)c3ccccc23)NC1=O [Apicidin]
2. COc1cccc2c1C(=O)c1c(O)c3c(c(O)c1C2=O)C[C@@](O)(C(C)=O)C[C@@H]3O[C@H]1C[C@H](N)[C@H](O)[C@H](C)O1 [Daunorubicin]
3. CC(C)(C)CC(C)(C)c1ccc(OCCOCC[N+](C)(C)Cc2ccccc2)cc1 [Benzethonium chloride]
4. CCCC[C@@H](C)/C=C(C)/C=C(\C)C(=O)NC1=C[C@@](O)(/C=C/C=C/C=C/C(=O)NC2=C(O)CCC2=O)[C@@H]2O[C@@H]2C1=O [manumycin A]

Completion:
1. 315.8
2. 228.6
3. 338.0
4. 418.4

Dear reader, for each entry below, please note its Area under the dose-response curve (AUC) MKL-1 Replicate 1.
1. C[n+]1cc2c3c(ccc2c2ccc4cc5c(cc4c21)OCO5)OCO3 [Sanguinarine]
2. COC[C@H]1OC(=O)c2coc3c2[C@@]1(C)C1=C(C3=O)[C@@H]2CC[C@H](O)[C@@]2(C)C[C@H]1OC(C)=O [17_-hydroxy Wortmannin]

Completion:
[358.8, 417.4]

Dear reader, for each entry below, please note its Area under the dose-response curve (AUC) MKL-1 Replicate 1.
1. CCC(=O)NC[C@H](Cc1ccc(OCCc2nc(-c3ccccc3)oc2C)cc1)N/C(C)=C\C(=O)c1ccc(C(F)(F)F)cc1 [GW-6471]
2. O[C@H]1[C@H]2[C@H](O)CCCN2C[C@H]1O [Swainsonine]
3. C[C@H]1CCC/C=C/[C@@H]2C[C@H](OC(=O)CN(C)C)C[C@H]2[C@H](O)/C=C/C(=O)O1 [Breflate]

Completion:
[475.3, 483.5, 284.7]

Dear reader, for each entry below, please note its Area under the dose-response curve (AUC) MKL-1 Replicate 1.
1. CO[C@@H]1C[C@@H](C[C@H]2CC[C@H](C)[C@H]([C@@H](C)C(=O)[O-])O2)O[C@]2(O[C@](C)([C@H]3CC[C@@](C)([C@@H]4O[C@@H]([C@H]5O[C@@](O)(CO)[C@H](C)C[C@@H]5C)C[C@@H]4C)O3)C[C@H]2C)[C@@H]1C.[Na+] [Nigericin sodium salt]
2. O=C(/C=C/c1ccc(/C=C/C(=O)Nc2ccc(C3=NCCN3)cc2)cc1)Nc1ccc(C2=NCCN2)cc1 [GW 4869]
3. CCCCCCCCC(=O)NCc1ccc(O)c(OC)c1 [Nonivamide]
4. CCCNC(=O)[C@H]1O[C@@H]1C(=O)N[C@H](C(=O)N1CCC[C@H]1C(=O)OC)C(C)CC (some centres unmarked) [CA-074 Me]
5. CN(C)c1ccc(C(=C2C=CC(=[N+](C)C)C=C2)c2ccccc2)cc1.CN(C)c1ccc(C(=C2C=CC(=[N+](C)C)C=C2)c2ccccc2)cc1.O=C(O)C(=O)O.O=C([O-])C(=O)O.O=C([O-])C(=O)O [Malachite green oxalate]
6. CC[C@@]1(O)C(=O)OCc2c1cc1n(c2=O)Cc2cc3cc(O)ccc3nc2-1 [10-hydroxycamptothecin]
7. C[C@H]1O[C@@H](O[C@H]2[C@@H](O)C[C@H](O[C@H]3[C@@H](O)C[C@H](O[C@H]4CC[C@@]5(C)[C@H](CC[C@@H]6[C@@H]5CC[C@]5(C)[C@@H](C7=CC(=O)OC7)CC[C@]65O)C4)O[C@@H]3C)O[C@@H]2C)C[C@H](O)[C@@H]1O [Digitoxin]
8. COc1cc(O)c2c(c1)oc(=O)c1c3cc(O)c(O)cc3oc21 [WEDELOLACTONE]

Completion:
303.1
478.1
491.5
343.4
266.3
214.0
269.2
490.5

Dear reader, for each entry below, please note its Area under the dose-response curve (AUC) MKL-1 Replicate 1.
1. CC(=O)C1=C(O)[C@@H]2[C@H]3c4c[nH]c5cccc(c45)C[C@H]3C(C)(C)N2C1=O [Cyclopiazonic acid]
2. O=C1c2c(O)ccc(O)c2C(=O)c2c(NCCNCCO)ccc(NCCNCCO)c21 [Mitoxantrone dihydrochloride]

Completion:
1. 549.5
2. 180.6

Dear reader, for each entry below, please note its Area under the dose-response curve (AUC) MKL-1 Replicate 1.
1. CN(C)c1ccc(C(=C2C=CC(=[N+](C)C)C=C2)c2ccc(N(C)C)cc2)cc1.[Cl-] [Methylrosaniline chloride]
2. O=c1cccc2n1C[C@@H]1CNC[C@H]2C1 [Cytisine]
3. CN(C)C(=O)Nc1ccc(Cl)c(Cl)c1 [Diuron]
4. O=C1Nc2cc(Br)ccc2/C1=C1/Nc2ccccc2/C1=N\O [BIO]

Completion:
[316.1, 469.7, 459.9, 450.0]

---

I'd appreciate it if you could supply MKL1_AUC values for the items below.
- Tested on: MKL-1 cells (VP-MCC)
- Assay details: qHTS cell viability (CellTiter-Glo, 72 h; primary and follow-up small molecule screen)
- Assay type: cell-based, human
- Experimental context: area under the dose-response curve, MKL-1 cells; AUC<450 = reduced viability
Structures can show the parent of a compound that is named as a salt.
One number for each entry.

Below: 5 molecules and their reported MKL1_AUC.
{"columns": ["Molecule", "Tgt", "MKL1_AUC"],
 "data": [
  ["CC(C)(C)NCC(O)c1cc(O)cc(O)c1.CC(C)(C)NCC(O)c1cc(O)cc(O)c1.O=S(=O)(O)O (centres unmarked) [Terbutaline hemisulfate]", "MKL-1 cells (VP-MCC)", 438.666],
  ["CCOc1cc(N)c(Cl)cc1C(=O)NCC1CN(Cc2ccc(F)cc2)CCO1 (centres unmarked) [Mosapride citrate]", "MKL-1 cells (VP-MCC)", 438.77],
  ["C[N+]1(CC2COC(c3ccccc3)(C3CCCCC3)O2)CCCCC1 (centres unmarked) [Oxapium iodide]", "MKL-1 cells (VP-MCC)", 436.858],
  ["CN[C@@H]1[C@H](O)[C@H](NC)[C@H]2O[C@@]3(O)C(=O)C[C@@H](C)O[C@H]3O[C@@H]2[C@H]1O.Cl.Cl [Spectinomycin dihydrochloride]", "MKL-1 cells (VP-MCC)", 379.185],
  ["O=C(O)/C=C(\\CC(=O)O)C(=O)O [trans-Aconitic acid]", "MKL-1 cells (VP-MCC)", 435.147]
]}

Dear reader, for each entry below, please note its MKL1_AUC.
1. COc1ccc(C(=O)CC(=O)c2ccc(C(C)(C)C)cc2)cc1
2. CC[N+](CC)(CC)CCOC(=O)C(C1CCCC1)C1CCCC1 [Diponium bromide]
3. CCCCCCCCCCCC1=C(O)C(=O)C=C(O)C1=O

Completion:
1. 411.648
2. 427.875
3. 418.887

---

I'd appreciate it if you could supply Percent viability values for the items below.
- Tested on: MKL-2 cells (VP-MCC)
- Assay details: qHTS cell viability (CellTiter-Glo, 72 h; primary and follow-up small molecule screen)
- Assay type: cell-based, human
- Experimental context: MKL2, 72h, Log (M) -5.81358

{"columns": ["Molecule", "Percent viability"],
 "data": [
  ["CCn1cc(-c2ccnc3[nH]c(-c4cccc(CN(C)C)c4)cc23)c(-c2ccc(NC(=O)N(C)C)cc2)n1 [GSK-1070916A, reference compound]", "2.3%"]
]}

Dear reader, for each entry below, please note its Percent viability.
1. O=C(Nc1cccc(Cl)c1)Nc1ncc(CCNc2ncnc3ccsc23)s1 [SNS-314, reference compound]
2. Cc1cc(Nc2cc(N3CCN(C)CC3)nc(Sc3ccc(NC(=O)C4CC4)cc3)n2)[nH]n1 [Tozasertib, reference compound]
3. CCS(=O)(=O)c1cccc(-c2cc(C(=O)NC3CCN(C)CC3)c(C)c3[nH]c4ncc(C)cc4c23)c1 [TAK-901, reference compound]

Completion:
["47.8%", "82.7%", "12.3%"]
